# Tested Target: Cys12 of the KRAS 4B G12C protein (Homo sapiens, UniProt P01116, G12C)
# Construct: This protein contained 188 amino acids in total, including an N-terminal 6-Histidine tag; made in house; host or cells: E. coli BL21
# Measurement Protocol: In vitro covalent adduct formation (CAF) assay, LC-MS intact mass
# Assay type: binding
# Protocol Conditions: 10 μM compound, after 1 hour
# Experimental: This Example provides a protocol for assessing covalent adduct formation (CAF) between the compounds of the present application and KRAS. In vitro covalent adduct formation assay: Covalent adduct formation (CAF) reactions between Cys12 of the KRAS 4B G12C protein and some of the compounds of Tables 1 to 4 were measured in vitro using liquid chromatography-mass spectrometry (LC-MS). Recombinant Human KRAS 4B protein containing the G12C mutation was used in compound screening experiments. […]
Returns one of 1 (yes) or 0 (no); 1 (yes) when CAF (% after 1 hour) is >= 90%.

>>> class_name("C=CC(=O)N1C[C@H](C)N(c2nc(=O)n3c4c(c(-c5ccc(F)c(Cl)c5)c(C(F)(F)F)cc24)SC[C@@H](OC)C3)C[C@H]1C")
"1 (yes)"
>>> class_name("C=C(F)C(=O)N1CCN(c2nc(=O)n3c4c(c(-c5cc(Cl)c(F)cc5F)c(C(F)(F)F)cc24)SC[C@@H](OC)C3)CC1")
"0 (no)"
>>> class_name("C=CC(=O)N1CCN(c2nc(=O)n3c4c(c(-c5cc(Cl)c(F)cc5F)c(C(F)(F)F)cc24)SC[C@@H](OC)C3)[C@@H]2CN(S(C)(=O)=O)C[C@@H]21")
"0 (no)"
>>> class_name("C=CC(=O)N1CCN(c2nc(=O)n3c4c(c(-c5cc(Cl)c(F)cc5F)c(C(F)(F)F)cc24)SC[C@@H](OC)C3)[C@@H]2CS(=O)(=O)C[C@@H]21")
"1 (yes)"
>>> class_name("C=CC(=O)N1[C@H](C)CN(c2nc(=O)n3c4c(c(-c5ncc(C(F)(F)F)s5)c(C(F)(F)F)cc24)SC[C@@H](OC)C3)C[C@@H]1C")
"1 (yes)"
>>> class_name("C=CC(=O)N1[C@H](C)CN(c2nc(=O)n3c4c(c(-c5cc(Cl)c(F)cc5F)c(C(F)(F)F)cc24)SC[C@@H](Oc2cc(C)on2)C3)C[C@@H]1C [Example 1231]")
"0 (no)"

====

Overview of reported % CAF 10 uM @ 60 min across a group of molecules:
# Tested Target: Cys12 of the KRAS 4B G12C protein (Homo sapiens, UniProt P01116, G12C)
# Construct: This protein contained 188 amino acids in total, including an N-terminal 6-Histidine tag; made in house; host or cells: E. coli BL21
# Measurement Protocol: In vitro covalent adduct formation (CAF) assay, LC-MS intact mass
# Type: binding
# Protocol Conditions: 10 uM compound, 60 min
Assay Endpoint: % CAF 10 uM @ 60 min (%)

>>> test_result("C=CC(=O)N1[C@H](C)CN(c2nc(=O)n3c4c(c(-c5ccc(F)cc5F)c(C(F)(F)F)cc24)SC[C@@H]3COCOC)C[C@@H]1C (atropisomer, axis not shown) [Example 1319]")
96.3
>>> test_result("C=CC(=O)N1C[C@H](C)N(c2nc(=O)n3c4c(c(-c5cccc6cnn(C)c56)c(C(F)(F)F)cc24)SC[C@@H]3CN2CCN(C3CC3)CC2)C[C@H]1C (atropisomer, axis not shown) [Example 1388]")
95.3
>>> test_result("C=CC(=O)N1[C@H](C)CN(c2nc(=O)n3c4c(c(-c5ccc(F)cc5)c(C(F)(F)F)cc24)SC[C@H](COC)C3)C[C@@H]1C [Example 1408]")
83.7
>>> test_result("C=CC(=O)N1[C@H](C)CN(c2nc(=O)n3c4c(c(-c5ccc(F)cc5F)c(C(F)(F)F)cc24)SC[C@@H]3CN2CC[C@H](F)C2)C[C@@H]1C (atropisomer, axis not shown) [Example 1429]")
79
>>> test_result("C=CC(=O)N1C[C@H](C)N(c2nc(=O)n3c4c(c(-c5cc(Br)c(F)cc5F)c(C(F)(F)F)cc24)SCC2(COC2)C3)C[C@H]1C (atropisomer, axis not shown) [Example 1445]")
95
>>> test_result("C=CC(=O)N1CCN(c2nc(=O)n3c4c(c(-c5cc(Cl)c(F)cc5F)c(C(F)(F)F)cc24)SC[C@@H]3CN2C[C@@H]3C[C@H]2CO3)CC1 [Example 1311]")
95.4
>>> test_result("C=CC(=O)N1C[C@H](C)N(c2nc(=O)n3c4c(c(-c5ccc(F)cc5F)c(C(F)(F)F)cc24)SC[C@@H]3CN2C[C@@H]3C[C@H]2CO3)C[C@H]1C (atropisomer, axis not shown) [Example 1322]")
96.2
>>> test_result("C=CC(=O)N1C[C@H](C)N(c2nc(=O)n3c4c(c(-c5ccc(F)cc5F)c(C(F)(F)F)cc24)SC[C@@H]3CN2CCC3(CC2)COC3)C[C@H]1C (atropisomer, axis not shown) [Example 1315]")
96.3
>>> test_result("C=CC(=O)N1[C@H](C)CN(c2nc(=O)n3c4c(c(-c5ccc(F)cc5F)c(C(F)(F)F)cc24)SC[C@@H]3CN2CCN(C3CC3)CC2)C[C@@H]1C (atropisomer, axis not shown) [Example 1346]")
96.9
>>> test_result("C=CC(=O)N1CCN(c2nc(=O)n3c4c(c(-c5ccc(F)c(Cl)c5)c(C(F)(F)F)cc24)SCC2(COC2)C3)CC1 [Example 1357]")
92.4
>>> test_result("C=CC(=O)N1CCN(c2nc(=O)n3c4c(c(-c5ccc(F)cc5F)c(C(F)(F)F)cc24)SC[C@@H]3CN2CCN(CC)CC2)CC1 (atropisomer, axis not shown) [Example 1318]")
99.6
>>> test_result("C=CC(=O)N1CCN(c2nc(=O)n3c4c(c(-c5ccc(F)c6cnn(C)c56)c(C(F)(F)F)cc24)SC[C@@H]3COC)CC1 (atropisomer, axis not shown) [Example 1392a]")
97.2
>>> test_result("C=CC(=O)N1[C@H](C)CN(c2nc(=O)n3c4c(c(-c5c(F)ccc6cnn(C)c56)c(C(F)(F)F)cc24)SC[C@@H]3COC)C[C@@H]1C (atropisomer, axis not shown) [Example 1406]")
75.9
>>> test_result("[2H]C([2H])=C([2H])C(=O)N1[C@H](C)CN(c2nc(=O)n3c4c(c(-c5cc(Cl)c(F)cc5F)c(C(F)(F)F)cc24)SC[C@@H]3COC)C[C@@H]1C (atropisomer, axis not shown) [Example 1392]")
64.9
>>> test_result("C=CC(=O)N1CCN(c2nc(=O)n3c4c(c(-c5cc(Cl)c(F)cc5F)c(C(F)(F)F)cc24)SCC2(COC2)C3)CC1 (atropisomer, axis not shown) [Example 1396]")
95.1
>>> test_result("C=CC(=O)N1[C@H](C)CN(c2nc(=O)n3c4c(c(-c5cc(Cl)c(F)cc5F)c(C(F)(F)F)cc24)SC[C@@H]3CN2C[C@@H]3C[C@H]2CO3)C[C@@H]1C [Example 1302]")
78.9
>>> test_result("C=CC(=O)N1[C@H](C)CN(c2nc(=O)n3c4c(c(-c5c(F)cc(F)cc5F)c(C(F)(F)F)cc24)SC[C@@H]3COC)C[C@@H]1C [Example 1374]")
88.5
>>> test_result("C=CC(=O)N1C[C@H](C)N(c2nc(=O)n3c4c(c(-c5ccc(F)cc5F)c(C(F)(F)F)cc24)SC[C@@H]3CN2C[C@@H]3C[C@H]2CO3)C[C@H]1C (atropisomer, axis not shown) [Example 1323]")
96.1
>>> test_result("C=CC(=O)N1C[C@H](C)N(c2nc(=O)n3c4c(c(-c5cccc6cnn(C)c56)c(Cl)cc24)SC[C@@H]3CN2CCN(C3CC3)CC2)C[C@H]1C [Example 1310]")
95
>>> test_result("C=CC(=O)N1CCN(c2nc(=O)n3c4c(c(-c5cc(Cl)c(F)cc5F)c(C(F)(F)F)cc24)SC[C@@H]3CN2C[C@@H]3C[C@H]2CO3)CC1 (atropisomer, axis not shown) [Example 1342]")
44.1

====

# Tested Target: K-Ras G12C (Homo sapiens, UniProt P01116, G12C)
# Construct: This protein contained 188 amino acids in total, including an N-terminal 6-Histidine tag; made in house; host or cells: E. coli BL21
# Measurement Protocol: CAF assay (% CAF; method in Example 7, not in this part)
# Assay type: binding
# Protocol Conditions: 10 uM compound, 1 h incubation
Each entry falls in a class defined on % CAF @ 10 uM, 1h; the bands are lower: < 70%; middle: ≥ 70% and < 90%; upper: ≥ 90%

>>> class_name("C=CC(=O)N1CCN(c2nc(=O)n3c4c(c(-c5cc(Cl)c(F)cc5F)c(Cl)cc24)SC[C@@H]3CN2CCN(C3CC3)CC2)[C@@H](C)C1 [Example 458]")
"lower"
>>> class_name("C=CC(=O)N1CCN(c2nc(=O)n3c4c(c(-c5cc(F)c(F)cc5F)c(Cl)cc24)SC[C@@H]3CN2CCC3(CC2)COC3)[C@@H](C)C1 [Example 469]")
"lower"
>>> class_name("C=CC(=O)N1CCN(c2nc(=O)n3c4c(c(-c5cc(F)c(F)cc5F)c(C(F)(F)F)cc24)SC[C@H]3COCOC)[C@@H](C)C1 [Example 471]")
"lower"
>>> class_name("CN(C)C/C=C/C(=O)N1C2CC(=O)CC1CN(c1nc(=O)n3c4c(c(-c5ccc(F)cc5F)c(C(F)(F)F)cc14)SCC3)C2 [Example 420]")
"upper"
>>> class_name("C=CC(=O)N1C[C@H](C)N(c2nc(=O)n3c4c(c(-c5cc(F)c(F)cc5F)c(Cl)cc24)SC[C@@H]3CN2CCn3c(nnc3C(F)(F)F)C2)C[C@H]1C [Example 459]")
"middle"
>>> class_name("C=CC(=O)N1[C@H](C)CN(c2nc(=O)n3c4c(c(-c5ccc(F)cc5F)c(C(F)(F)F)cc24)SC[C@@H](OC)C3)C[C@@H]1C [Example 503]")
"upper"
>>> class_name("C=CC(=O)N1CCN(c2nc(=O)n3c4c(c(-c5ccc(F)cc5F)c(C(F)(F)F)cc24)S(=O)(=O)C[C@@H]3CC2CCN(CC(F)F)CC2)[C@@H](C)C1 [Example 429]")
"lower"
>>> class_name("C=CC(=O)N1[C@H](C)CN(c2nc(=O)n3c4c(c(-c5ccc(F)cc5F)c(Cl)cc24)SC[C@H](OC)C3)C[C@@H]1C [Example 526]")
"upper"
>>> class_name("C=CC(=O)N1[C@H](C)CN(c2nc(=O)n3c4c(c(-c5cc(Cl)c(F)cc5F)c(Cl)cc24)SC[C@H](OC)C3)C[C@@H]1C [Example 542]")
"upper"
>>> class_name("C=CC(=O)N1CCN(c2nc(=O)n3c4c(c(-c5ccc(F)cc5F)c(C(F)(F)F)cc24)SC[C@@H]3COC)CC1 (atropisomer, axis not shown) [Example 578]")
"upper"
>>> class_name("C=CC(=O)N1CCN(c2nc(=O)n3c4c(c(-c5ccc(F)cc5)c(Cl)cc24)SC[C@@H]3CN2CCn3c(nnc3C(F)(F)F)C2)[C@@H](C)C1 [Example 444]")
"lower"
>>> class_name("C=CC(=O)N1[C@H](C)CN(c2nc(=O)n3c4c(c(-c5ccc(F)cc5F)c(C(F)(F)F)cc24)SC[C@@H]3COC)C[C@@H]1C [Example 513]")
"upper"
>>> class_name("C=CC(=O)N1C[C@H](C)N(c2nc(=O)n3c4c(c(-c5ccc(F)cc5F)c(C(F)(F)F)cc24)SC[C@@H]3CN2CCN(CC#N)CC2)C[C@H]1C [Example 561]")
"lower"
>>> class_name("C=CC(=O)N1CCN(c2nc(=O)n3c4c(c(-c5ccc(F)c6cccnc56)c(Cl)cc24)SCC3)[C@@H](C)C1 [Example 441]")
"middle"
>>> class_name("C=CC(=O)N1C[C@H](C)N(c2nc(=O)n3c4c(c(-c5ccc(F)cc5)c(C(F)(F)F)cc24)SC[C@@H]3COC)C[C@H]1C [Example 497]")
"middle"
>>> class_name("C=CC(=O)N1CCN(c2nc(=O)n3c4c(c(-c5cc(Cl)c(F)cc5F)c(C(F)(F)F)cc24)SC[C@H](OC)C3)[C@@H](C)C1 [Example 533]")
"upper"
>>> class_name("C=CC(=O)N1CCN(c2nc(=O)n3c4c(c(-c5ccc(F)cc5)c(Cl)cc24)SC[C@H](OC)C3)CC1 [Example 540]")
"upper"
>>> class_name("C=CC(=O)N1CCN(c2nc(=O)n3c4c(c(-c5ccc(F)cc5)c(C(F)(F)F)cc24)SC[C@@H]3COCOC)[C@@H](C)C1 [Example 516]")
"middle"
>>> class_name("C=CC(=O)N1CCN(c2nc(=O)n3c4c(c(-c5cc(F)c(F)cc5F)c(C(F)(F)F)cc24)SC[C@@H]3COCOC)[C@@H](C)C1 [Example 522]")
"middle"
